Test system: Staphylococcus aureus (ATCC 43300)
Experimental details: Antibacterial MIC, broth microdilution (CLSI)
Format: cell-based
Condition notes: Staphylococcus aureus, ATCC43300; read-out: MIC80 S. aureus
Catalogue of MIC80 readings, one per entry.

Find the measured MIC80: item "[H]/N=C(\CCNC(=O)c1cc(NC(=O)c2cc(NC(=O)c3ccc(C=Cc4ccc(N(C)C)cc4)nc3)cn2C)cn1C)NOC" , target or system Staphylococcus aureus (ATCC 43300).
< 5 µM

Find the measured MIC80: item "C/N=C(\CCNC(=O)c1cc(NC(=O)c2cc(NC(=O)c3ccc(/C=C/c4cccc(OC)c4)cc3)cn2C)cn1C)NC" , target or system Staphylococcus aureus (ATCC 43300).
< 5 µM

Find the measured MIC80: item "Cn1cc(NC(=O)c2cc(NC(=O)c3ccc(/C=C/c4cnc5ccccc5c4)cc3)cn2C)cc1C(N)=O" , target or system Staphylococcus aureus (ATCC 43300).
< 5 µM

Find the measured MIC80: item "Cn1cc(NC(=O)c2ccc(/C=C/c3cnc4ccccc4c3)cc2)cc1C(=O)Nc1c[nH]c(C(=O)NCCC(=N)N)c1" , target or system Staphylococcus aureus (ATCC 43300).
< 5 µM

More entries:
Find the measured MIC80: item "[H]/N=C(\CCNC(=O)c1cc(NC(=O)c2cc(NC(=O)c3ccc(C=Cc4ccc(N(C)C)cc4)nc3)cn2C)cn1C)NCCCCCCCCC" , target or system Staphylococcus aureus (ATCC 43300).
< 5 µM

Find the measured MIC80: item "Cn1cc(NC(=O)c2cc(NC(=O)c3ccc(/C=C/c4cnc5ccccc5c4)cc3)cn2C)cc1C(=O)NCCC(=N)N1CCSCC1" , target or system Staphylococcus aureus (ATCC 43300).
< 5 µM

Find the measured MIC80: item "Cn1cc(NC(=O)c2ccc(/C=C/c3cnc4ccccc4c3)cc2)cc1C(=O)Nc1cc(C(=O)N2CCCCC2)n(C)c1" , target or system Staphylococcus aureus (ATCC 43300).
25 to 100 µM

Find the measured MIC80: item "CN(C)c1ccc(/C=C/c2ccc(C(=O)Nc3c[nH]c(C(=O)Nc4cc(C(=O)NCCC(=N)N)n(C)c4)c3)cn2)cc1" , target or system Staphylococcus aureus (ATCC 43300).
< 5 µM

Find the measured MIC80: item "Cn1cc(NC(=O)c2ccc(/C=C/c3cnc4ccccc4c3)cc2)cc1C(=O)Nc1cc(C(=O)N2CCCCCC2)n(C)c1" , target or system Staphylococcus aureus (ATCC 43300).
25 to 100 µM

Find the measured MIC80: item "Cn1cc(NC(=O)c2ccc(/C=C/c3cnc4ccccc4c3)cc2)cc1C(=O)Nc1c[nH]c(C(=O)NCCN2CCOCC2)c1" , target or system Staphylococcus aureus (ATCC 43300).
< 5 µM

Find the measured MIC80: item "CNC(=N)CCNC(=O)c1cc(NC(=O)c2cc(NC(=O)c3ccc(/C=C/c4cccc(OC)c4)cc3)cn2C)cn1C" , target or system Staphylococcus aureus (ATCC 43300).
5 to 25 µM

Find the measured MIC80: item "CCCCCCC/N=C(\CCNC(=O)c1cc(NC(=O)c2cc(NC(=O)c3ccc(/C=C/c4ccc(N(C)C)cc4)nc3)cn2C)cn1C)NCCCCCCC" , target or system Staphylococcus aureus (ATCC 43300).
5 to 25 µM
